# credit: patent US20260308152A1

Assay: Chiral acid salt screen: approximate solubility of starting material in solvents
Type: physicochemical
Conditions: Acetone:water (9:1); ambient temperature, 3 days
Procedure: INT 1f salts (50-60 mg) were weighed into 4 ml vials. Solvent (~0.2-1.0 mL) was added to each vial, and the vials were stirred at ambient temperature for 3 days. Additional solvent was added to vials with thick slurries, and additional salts were added to vials with clear solutions. In this example, the resolution of INT 1g and Compound 1 via chiral salts is summarized.
observable: Approximate Solubility of Starting Material

- molecule: "Cc1cc2c(C(N)=O)c(N)n(-c3c(C)ccc(O)c3C)c2nc1C [Compound 1/Acid f]"
  experimental-value: "Soluble"
- molecule: "CC1(C)C2CCC1(CS(=O)(=O)O)C(=O)C2Br.COc1ccc(C)c(-n2c(N)c(C#N)c3cc(C)c(C)nc32)c1C.O"
  experimental-value: "Highly soluble"
- molecule: "COc1ccc(C)c(-n2c(N)c(C#N)c3cc(C)c(C)nc32)c1C.Cc1ccc(C(=O)O[C@H](C(=O)O)[C@H](OC(=O)c2ccc(C)cc2)C(=O)O)cc1"
  experimental-value: "Soluble"
- molecule: "COc1ccc(C)c(-n2c(N)c(C#N)c3cc(C)c(C)nc32)c1C.O=C(O[C@H](C(=O)O)[C@H](OC(=O)c1ccccc1)C(=O)O)c1ccccc1 [INT 1f/(+)-2,3-Dibenzoyl-D-tartaric Acid]"
  experimental-value: "Soluble"

### Prompt # input molecule: CC1(C)C2CC[C@@]1(CS(=O)(=O)O)C(=O)C2.COc1ccc(C)c(-n2c(N)c(C#N)c3cc(C)c(C)nc32)c1C [INT 1f/(S)-CSA] ; wanted: its Approximate Solubility of Starting Material
### Response Highly soluble

---

experiment: Chiral acid salt screen: approximate solubility of starting material in solvents; format: physicochemical; details: 1,4-Dioxane; ambient temperature, 3 days
observable: Approximate Solubility of Starting Material

- compound: "CC1(C)C2CC[C@@]1(CS(=O)(=O)O)C(=O)C2.COc1ccc(C)c(-n2c(N)c(C#N)c3cc(C)c(C)nc32)c1C [INT 1f/(S)-CSA]"
  experimental-value: "Soluble"
- compound: "COc1ccc(C)c(-n2c(N)c(C#N)c3cc(C)c(C)nc32)c1C.O=C(O[C@H](C(=O)O)[C@H](OC(=O)c1ccccc1)C(=O)O)c1ccccc1 [INT 1f/(+)-2,3-Dibenzoyl-D-tartaric Acid]"
  experimental-value: "Highly soluble"
- compound: "COc1ccc(C)c(-n2c(N)c(C#N)c3cc(C)c(C)nc32)c1C.O=P1(O)Oc2c(-c3c(C4CCCCC4)cc(C4CCCCC4)cc3C3CCCCC3)cc3ccccc3c2-c2c(c(-c3c(C4CCCCC4)cc(C4CCCCC4)cc3C3CCCCC3)cc3ccccc23)O1 [INT 1f/(S)-TCYP]"
  experimental-value: "Soluble"
- compound: "COc1ccc(C)c(-n2c(N)c(C#N)c3cc(C)c(C)nc32)c1C.O=P1(O)Oc2ccc3ccccc3c2-c2c(ccc3ccccc23)O1"
  experimental-value: "Highly soluble"
- compound: "CC(C)c1cc(C(C)C)c(-c2cc3ccccc3c3c2OP(=O)(O)Oc2c(-c4c(C(C)C)cc(C(C)C)cc4C(C)C)cc4ccccc4c2-3)c(C(C)C)c1.COc1ccc(C)c(-n2c(N)c(C#N)c3cc(C)c(C)nc32)c1C [INT 1f/(S)-TRIP]"
  experimental-value: "Highly soluble"

### Prompt # input compound: CC1(C)C2CCC1(CS(=O)(=O)O)C(=O)C2Br.COc1ccc(C)c(-n2c(N)c(C#N)c3cc(C)c(C)nc32)c1C.O ; wanted: its Approximate Solubility of Starting Material
### Response Highly soluble

---

Assay: Chiral acid salt screen: approximate solubility of starting material in solvents
Type: physicochemical
Conditions: Toluene; ambient temperature, 3 days
Description: INT 1f salts (50-60 mg) were weighed into 4 ml vials. Solvent (~0.2-1.0 mL) was added to each vial, and the vials were stirred at ambient temperature for 3 days. Additional solvent was added to vials with thick slurries, and additional salts were added to vials with clear solutions. In this example, the resolution of INT 1g and Compound 1 via chiral salts is summarized.
observable: Approximate Solubility of Starting Material

In the examples that follow, each entry is paired with its recorded Approximate Solubility of Starting Material.
- compound: "CC1(C)C2CCC1(CS(=O)(=O)O)C(=O)C2Br.COc1ccc(C)c(-n2c(N)c(C#N)c3cc(C)c(C)nc32)c1C.O"
  experimental-value: "Soluble"
- compound: "CC1(C)C2CC[C@@]1(CS(=O)(=O)O)C(=O)C2.COc1ccc(C)c(-n2c(N)c(C#N)c3cc(C)c(C)nc32)c1C [INT 1f/(S)-CSA]"
  experimental-value: "Highly soluble"
- compound: "COc1ccc(C)c(-n2c(N)c(C#N)c3cc(C)c(C)nc32)c1C.O=C(O[C@H](C(=O)O)[C@H](OC(=O)c1ccccc1)C(=O)O)c1ccccc1 [INT 1f/(+)-2,3-Dibenzoyl-D-tartaric Acid]"
  experimental-value: "Soluble"
- compound: "COc1ccc(C)c(-n2c(N)c(C#N)c3cc(C)c(C)nc32)c1C.O=P1(O)Oc2c(-c3c(C4CCCCC4)cc(C4CCCCC4)cc3C3CCCCC3)cc3ccccc3c2-c2c(c(-c3c(C4CCCCC4)cc(C4CCCCC4)cc3C3CCCCC3)cc3ccccc23)O1 [INT 1f/(S)-TCYP]"
  experimental-value: "Very soluble"
- compound: "COc1ccc(C)c(-n2c(N)c(C#N)c3cc(C)c(C)nc32)c1C.Cc1ccc(C(=O)O[C@H](C(=O)O)[C@H](OC(=O)c2ccc(C)cc2)C(=O)O)cc1"
  experimental-value: "Soluble"

### Prompt # input compound: COc1ccc(C)c(-n2c(N)c(C#N)c3cc(C)c(C)nc32)c1C.O=P1(O)Oc2ccc3ccccc3c2-c2c(ccc3ccccc23)O1 ; wanted: its Approximate Solubility of Starting Material
### Response Very soluble

### Prompt # input compound: CC(C)c1cc(C(C)C)c(-c2cc3ccccc3c3c2OP(=O)(O)Oc2c(-c4c(C(C)C)cc(C(C)C)cc4C(C)C)cc4ccccc4c2-3)c(C(C)C)c1.COc1ccc(C)c(-n2c(N)c(C#N)c3cc(C)c(C)nc32)c1C [INT 1f/(S)-TRIP] ; wanted: its Approximate Solubility of Starting Material
### Response Highly soluble

---

assay: Chiral acid salt screen: approximate solubility of starting material in solvents; type: physicochemical; conditions: EtOAc; ambient temperature, 3 days
observable: Approximate Solubility of Starting Material

- molecule: "COc1ccc(C)c(-n2c(N)c(C#N)c3cc(C)c(C)nc32)c1C.O=P1(O)Oc2ccc3ccccc3c2-c2c(ccc3ccccc23)O1"
  experimental-value: "Soluble"
- molecule: "CC(C)c1cc(C(C)C)c(-c2cc3ccccc3c3c2OP(=O)(O)Oc2c(-c4c(C(C)C)cc(C(C)C)cc4C(C)C)cc4ccccc4c2-3)c(C(C)C)c1.COc1ccc(C)c(-n2c(N)c(C#N)c3cc(C)c(C)nc32)c1C [INT 1f/(S)-TRIP]"
  experimental-value: "Very soluble"
- molecule: "CC1(C)C2CCC1(CS(=O)(=O)O)C(=O)C2Br.COc1ccc(C)c(-n2c(N)c(C#N)c3cc(C)c(C)nc32)c1C.O"
  experimental-value: "Very soluble"
- molecule: "CC1(C)C2CC[C@@]1(CS(=O)(=O)O)C(=O)C2.COc1ccc(C)c(-n2c(N)c(C#N)c3cc(C)c(C)nc32)c1C [INT 1f/(S)-CSA]"
  experimental-value: "Soluble"
- molecule: "COc1ccc(C)c(-n2c(N)c(C#N)c3cc(C)c(C)nc32)c1C.Cc1ccc(C(=O)O[C@H](C(=O)O)[C@H](OC(=O)c2ccc(C)cc2)C(=O)O)cc1"
  experimental-value: "Soluble"

### Prompt # input molecule: COc1ccc(C)c(-n2c(N)c(C#N)c3cc(C)c(C)nc32)c1C.O=C(O[C@H](C(=O)O)[C@H](OC(=O)c1ccccc1)C(=O)O)c1ccccc1 [INT 1f/(+)-2,3-Dibenzoyl-D-tartaric Acid] ; wanted: its Approximate Solubility of Starting Material
### Response Soluble
